System: MDA-MB-468 breast
procedure.summary: NCI-60 one-dose screen, 48 h (100 = growth as untreated, 0 = no growth, -100 = all killed)
test.context: 10 µM unless noted
Compounds without any hit were thinned out: in the full panel of roughly 83,000, 20% have a hit.
Kindly supply the reported growth values for the records listed here.
Reply numerically in %, unit not repeated.

With MDA-MB-468 breast as the test system, COc1ccc(/C=C/C(=O)c2cc(OC)c(OC)c(OC)c2)cc1OCC(=O)Nc1nc2ccc(OC(F)(F)F)cc2s1 showed growth of 55.1

With MDA-MB-468 breast as the test system, O=C(C1=Cc2cc3ccccc3n2Cc2cnnn21)c1ccc(F)cc1 showed growth of 99.4

With MDA-MB-468 breast as the test system, COc1ccc(/C=N/NC(=O)COCC(=O)N/N=C/c2ccc(OC)cc2)cc1 showed growth of 100

With MDA-MB-468 breast as the test system, O=C(NCCN1CCOCC1)Nc1ccc(-c2cc3c(Nc4ccc(Oc5cccc(C(F)(F)F)c5)c(Cl)c4)ncnc3s2)cc1 showed growth of -28.3

With MDA-MB-468 breast as the test system, O=C(NCCCCCCCNC(=O)OCc1ccc2c(Cl)cc(Cl)c(O)c2n1)OCc1ccc2c(Cl)cc(Cl)c(O)c2n1 showed growth of -57.3
